# System: U87
# TEST DESCRIPTION: MTT cell viability assay, U87
# ASSAY SETUP: Homo sapiens, U-87 MG, 72 h, read-out: Cytotoxicity Data IC50 (μM)
ASSAY ENDPOINT: IC50 (µM)

SMILES TEXT	TARGET OR TEST SYSTEM	ASSAY ENDPOINT	READOUT VALUE
COc1c(OC)c(O)c2c(=O)c3c(CC=C(C)C)c(CC=C(C)C)c(O)c(O)c3oc2c1CC=C(C)C	U87	IC50	55.3
COc1cc(/C=C/C(=O)CC(=O)/C=C/c2ccc(O)c(OC)c2)ccc1O	U87	IC50	20.8
CC(=O)O[C@H]1C(=O)[C@@]2(C)[C@H]([C@H](OC(=O)c3ccccc3)[C@]3(O)C[C@H](OC(=O)[C@H](O)[C@@H](NC(=O)c4ccccc4)c4ccccc4)C(C)=C1C3(C)C)[C@]1(OC(C)=O)CO[C@@H]1C[C@@H]2O	U87	IC50	285
